system tested: T1, IL-18 receptor on HEK-Blue IL18R reporter cells (UniProt Q13478 19-541; O95256 20-599, limits assumed)
T1 sequence (looked up) 1: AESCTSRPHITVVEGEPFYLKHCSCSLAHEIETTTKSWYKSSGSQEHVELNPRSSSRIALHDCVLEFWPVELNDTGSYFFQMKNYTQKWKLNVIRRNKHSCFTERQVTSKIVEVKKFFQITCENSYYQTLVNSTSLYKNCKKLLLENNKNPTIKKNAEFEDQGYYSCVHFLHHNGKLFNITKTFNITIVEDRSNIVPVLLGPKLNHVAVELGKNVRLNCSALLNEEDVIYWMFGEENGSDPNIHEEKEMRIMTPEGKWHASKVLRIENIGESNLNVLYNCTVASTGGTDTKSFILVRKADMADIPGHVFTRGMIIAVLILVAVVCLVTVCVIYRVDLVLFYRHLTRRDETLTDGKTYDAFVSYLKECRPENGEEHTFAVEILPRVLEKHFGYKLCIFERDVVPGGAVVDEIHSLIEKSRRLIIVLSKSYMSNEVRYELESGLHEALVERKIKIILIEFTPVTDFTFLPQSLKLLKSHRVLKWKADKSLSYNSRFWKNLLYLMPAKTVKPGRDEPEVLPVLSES
T1 sequence (looked up) 2: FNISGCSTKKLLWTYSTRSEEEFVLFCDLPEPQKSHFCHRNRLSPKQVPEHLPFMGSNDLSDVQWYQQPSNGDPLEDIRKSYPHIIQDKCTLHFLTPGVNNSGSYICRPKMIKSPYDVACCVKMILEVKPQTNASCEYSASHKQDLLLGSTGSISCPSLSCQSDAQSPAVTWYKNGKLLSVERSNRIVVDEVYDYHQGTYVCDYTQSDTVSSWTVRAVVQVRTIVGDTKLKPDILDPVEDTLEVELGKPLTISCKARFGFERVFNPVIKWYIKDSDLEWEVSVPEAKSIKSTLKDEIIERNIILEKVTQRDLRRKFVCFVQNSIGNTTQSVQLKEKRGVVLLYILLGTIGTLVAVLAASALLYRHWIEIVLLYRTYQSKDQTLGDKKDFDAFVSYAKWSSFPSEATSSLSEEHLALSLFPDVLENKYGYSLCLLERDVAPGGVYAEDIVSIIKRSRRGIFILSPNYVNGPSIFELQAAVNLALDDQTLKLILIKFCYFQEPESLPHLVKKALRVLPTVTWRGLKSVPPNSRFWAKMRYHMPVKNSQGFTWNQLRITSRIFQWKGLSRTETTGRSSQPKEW
procedure summary: cell-based or functional assay

binder	uom	EC50, HEK-Blue IL18R reporter (SEAP)
modified IL-18 polypeptide SEQ ID NO: 223 (K8E, V11I, C38A, C76A, Q103R, C127A) (ligand) YFGKLESELSIIRNLNDQVLFIDQGNRPLFEDMTDSDARDNAPRTIFIISMYKDSQPRGMAVTISVKCEKISTLSAENKIISFKEMNPPDNIKDTKSDIIFFRRSVPGHDNKMQFESSSYEGYFLAAEKERDLFKLILKKEDELGDRSIMFTVQNED	nM	2.3
modified IL-18 polypeptide SEQ ID NO: 235 (E6K, K8E, V11I, C38A, K53A, T63A, C76A, Q103R, C127A) (ligand) YFGKLKSELSIIRNLNDQVLFIDQGNRPLFEDMTDSDARDNAPRTIFIISMYADSQPRGMAVAISVKCEKISTLSAENKIISFKEMNPPDNIKDTKSDIIFFRRSVPGHDNKMQFESSSYEGYFLAAEKERDLFKLILKKEDELGDRSIMFTVQNED	nM	0.4
modified IL-18 polypeptide SEQ ID NO: 60 (E6K, C38Q, K53A) (ligand) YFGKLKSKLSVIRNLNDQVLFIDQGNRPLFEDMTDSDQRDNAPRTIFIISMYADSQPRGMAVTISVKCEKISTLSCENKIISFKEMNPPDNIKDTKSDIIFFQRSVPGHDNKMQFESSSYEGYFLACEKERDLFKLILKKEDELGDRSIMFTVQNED	nM	0.203
modified IL-18 polypeptide SEQ ID NO: 224 (V11I, C38A, C76A, Q103K, C127A) (ligand) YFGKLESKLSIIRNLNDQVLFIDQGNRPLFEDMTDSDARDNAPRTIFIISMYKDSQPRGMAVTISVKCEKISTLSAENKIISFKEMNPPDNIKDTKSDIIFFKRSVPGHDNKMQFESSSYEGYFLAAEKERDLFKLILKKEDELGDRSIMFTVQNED	nM	1.5
modified IL-18 polypeptide SEQ ID NO: 216 (V11I, C38A, D40A, K53A, C76A, C127A) (ligand) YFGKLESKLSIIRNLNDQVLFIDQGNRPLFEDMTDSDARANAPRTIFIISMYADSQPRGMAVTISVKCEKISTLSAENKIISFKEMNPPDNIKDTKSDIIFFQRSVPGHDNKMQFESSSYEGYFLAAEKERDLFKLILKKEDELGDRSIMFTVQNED	nM	0.52
modified IL-18 polypeptide SEQ ID NO: 218 (V11I, C38A, K53A, C76A, C127A, D132A) (ligand) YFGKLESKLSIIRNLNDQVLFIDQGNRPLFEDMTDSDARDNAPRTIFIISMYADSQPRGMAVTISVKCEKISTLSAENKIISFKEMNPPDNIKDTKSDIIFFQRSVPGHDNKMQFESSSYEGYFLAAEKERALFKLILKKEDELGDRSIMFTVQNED	nM	1.95
modified IL-18 polypeptide SEQ ID NO: 206 (V11I, C38A, K53A, S55A, C76A, C127A) (ligand) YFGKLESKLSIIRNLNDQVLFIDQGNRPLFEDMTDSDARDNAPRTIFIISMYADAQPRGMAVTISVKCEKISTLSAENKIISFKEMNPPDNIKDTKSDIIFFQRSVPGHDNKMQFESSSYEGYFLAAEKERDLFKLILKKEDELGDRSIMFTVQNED	nM	3.63
